- test.conditions: buffer; pH 7.4; 200.0 µM
measured.attribute: solubility kinetic (µg/mL)
# unit: µg/mL | format: bare number

GET /values?readout=solubility kinetic&item= "Cc1cccc(OCC(=O)NCCNC(=O)c2cnccn2)c1"
46.5

GET /values?readout=solubility kinetic&item= "CCOc1ccc2nc(N3C(=O)CNC3=S)sc2c1"
2.5

GET /values?readout=solubility kinetic&item= "Oc1ccc(CNc2ccccc2)c2cccnc12"
3.5

GET /values?readout=solubility kinetic&item= "N#Cc1ccc(CN2C(=O)NC3(CCCCCC3)C2=O)cc1"
25.7

GET /values?readout=solubility kinetic&item= CCCCCC1CCC(C(=O)N2CCOCC2)CC1 (stereo not drawn)
27.7

GET /values?readout=solubility kinetic&item= "N#CCc1ccc(NC(=O)Nc2cccc3ccccc23)cc1"
0.6
